# system: T1, flag-tagged soluble TL3 (amino acids 105-251 of SEQ ID NO:234) (Homo sapiens (Human), UniProt O75888 105-250)
# T1 construct: Heterologous flag-tagged control protein, immobilized in the ELISA; also called flagged tagged TL-3; not shown: Flag tag
# T1 sequence: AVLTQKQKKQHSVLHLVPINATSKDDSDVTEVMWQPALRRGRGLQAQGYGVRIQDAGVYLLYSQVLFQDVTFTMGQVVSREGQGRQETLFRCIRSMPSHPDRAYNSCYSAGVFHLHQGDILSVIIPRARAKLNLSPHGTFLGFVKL
# method.summary: phage ELISA on immobilized flag-tagged soluble TL3

- binder: "GMCC124 (scFv) scFv: QVTLKESGAEVKKPGASVKVSCKASGYTFTDNALHWVRQAPGQRPEWMAWINTANGNTRYSQKFQGRLTITRDTSASTAFMDLSSLRSEDTAVYYCARQKAYKNYYYYYGMDVWGQGTLVTVSSGGGGSGGGGSGGGGSAQSVVTQPPSVSAAPGQKVTISCSGSSSNIGNNYVSWYQQLPGTAPKLLIYENNKRPSGIPDRFSGSQSGTSATLGISGLQTGDEADYYCGTWDSSLRAGVFGGGTKLTVLG"
  binding result: "no binding"
- binder: "GMBC725 (scFv) scFv: EVQLVQTGGGVVQPGGSLRLSCAASGFTFSSYGMHWVRQAPGKGLEWVAFILYDGSNKYYADSVKGRFTISRDNSKNTLYLQMNSLRAEDTAVYYCAKSSSSASAFDIWRQRTTVTVSSGGGGSGGGGSGGGGSSELTQDPAVSVALGQTVRITCQGDSLRSYYASWYQQKPGQAPVLVIYGKNNRPSGIPDRFSGSSSGNTASLTITGAQAEDEADYYCNSRDSSGNHVVFGGGTKLTVLG"
  binding result: "no binding"
